- assay-explanation: Unbound fraction in rat brain homogenate at 1 uM by LC-MS/MS based equilibrium dialysis
- Assay type: ADME, tissue-based
value-type: fraction unbound at 1 µM
Give your answer as a number; write no unit.

The measured fraction unbound at 1 µM associated with CS(=O)(=O)c1ccc(OCC2CC2)c(C(=O)N2Cc3cn(-c4ccccc4F)nc3C2)c1 reads 0.017

----------
- measured-on: Sodium- and chloride-dependent glycine transporter 1 (Rattus norvegicus, UniProt P28572)
- Sequence (P28572 whole entry): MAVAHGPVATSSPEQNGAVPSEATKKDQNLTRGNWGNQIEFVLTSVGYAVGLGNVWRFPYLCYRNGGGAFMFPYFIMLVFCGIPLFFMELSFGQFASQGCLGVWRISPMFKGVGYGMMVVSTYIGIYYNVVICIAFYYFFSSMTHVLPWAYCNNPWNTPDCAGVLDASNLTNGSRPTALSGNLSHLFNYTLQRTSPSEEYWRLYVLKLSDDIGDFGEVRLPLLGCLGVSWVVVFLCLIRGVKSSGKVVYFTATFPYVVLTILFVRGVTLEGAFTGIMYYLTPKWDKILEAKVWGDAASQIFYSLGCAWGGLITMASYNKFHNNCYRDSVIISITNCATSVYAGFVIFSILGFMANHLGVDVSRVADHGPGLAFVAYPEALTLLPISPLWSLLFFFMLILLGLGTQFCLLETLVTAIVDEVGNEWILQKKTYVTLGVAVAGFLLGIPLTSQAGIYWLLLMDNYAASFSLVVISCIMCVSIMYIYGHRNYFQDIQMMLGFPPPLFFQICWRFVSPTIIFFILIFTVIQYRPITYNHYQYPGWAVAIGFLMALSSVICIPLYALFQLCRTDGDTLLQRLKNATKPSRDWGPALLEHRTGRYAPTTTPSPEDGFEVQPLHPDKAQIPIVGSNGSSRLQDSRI
- assay-explanation: Inhibition of GlyT1 in primary rat cortical neurons assessed as reduction in [14C]glycine uptake after 2 hrs by microbeta scintillation counting method
pIC50: −log10 of the molar value.
Kindly return t if reported pIC50 is no lower than 7; return f if it is lower.

>>> assigned_label("CC(C)Oc1ccc(C#N)cc1C(=O)N1Cc2cn(-c3cncc(F)c3)nc2C1")
"f"
>>> assigned_label("Cc1cccc(-n2cc3c(n2)CN(C(=O)c2cc(S(C)(=O)=O)ccc2O[C@@H](C)C(F)(F)F)C3)c1")
"t"
>>> assigned_label("Cc1cc(-n2cc3c(n2)CN(C(=O)c2cc(C#N)ccc2N2CCC(F)(F)CC2)C3)ccn1")
"t"
>>> assigned_label("C[C@H](Oc1ccc(C#N)cc1C(=O)N1Cc2cn(C3CCCC3)nc2C1)C(F)(F)F")
"f"
>>> assigned_label("CCS(=O)(=O)c1ccc(O[C@@H](C)C(F)(F)F)c(C(=O)N2Cc3cn(-c4ccccc4F)nc3C2)c1")
"t"

Dear colleague, could you confirm whether N#Cc1ccc(-c2cccc(F)c2)c(C(=O)N2Cc3cn(-c4cncc(F)c4)nc3C2)c1 has pIC50 at or above 7?
f

pIC50 >= 7 for CCS(=O)(=O)c1ccc(O[C@@H](C)C(F)(F)F)c(C(=O)N2Cc3cn(-c4cncc(F)c4)nc3C2)c1 ?
t

----------
- measured-on: Sodium- and chloride-dependent glycine transporter 1 (Homo sapiens, UniProt P48067)
- Sequence (P48067 whole entry): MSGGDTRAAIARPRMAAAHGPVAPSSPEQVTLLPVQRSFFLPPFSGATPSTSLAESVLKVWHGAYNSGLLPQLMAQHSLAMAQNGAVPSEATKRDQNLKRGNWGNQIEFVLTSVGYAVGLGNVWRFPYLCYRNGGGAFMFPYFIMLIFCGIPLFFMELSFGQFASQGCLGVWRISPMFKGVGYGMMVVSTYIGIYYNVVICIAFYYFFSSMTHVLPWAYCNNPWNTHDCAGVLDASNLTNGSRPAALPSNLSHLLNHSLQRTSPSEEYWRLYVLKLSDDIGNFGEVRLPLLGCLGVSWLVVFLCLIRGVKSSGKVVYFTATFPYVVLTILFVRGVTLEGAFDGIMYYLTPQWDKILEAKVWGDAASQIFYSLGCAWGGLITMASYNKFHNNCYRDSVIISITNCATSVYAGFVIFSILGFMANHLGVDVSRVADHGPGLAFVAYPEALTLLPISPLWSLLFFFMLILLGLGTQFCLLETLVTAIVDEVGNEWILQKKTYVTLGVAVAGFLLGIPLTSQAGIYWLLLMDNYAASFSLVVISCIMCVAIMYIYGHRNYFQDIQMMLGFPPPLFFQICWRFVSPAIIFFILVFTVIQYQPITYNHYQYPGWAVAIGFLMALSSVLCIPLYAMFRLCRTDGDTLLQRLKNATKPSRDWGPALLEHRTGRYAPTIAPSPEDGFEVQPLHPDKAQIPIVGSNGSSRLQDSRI
- assay-explanation: Inhibition of recombinant human GlyT1c expressed in HEK293 cells assessed as reduction in [14C]glycine uptake after 2 hrs by microbeta scintillation counting method
value-type: IC50 (nM)
Form entry: value (nM) — number only.

Past entries and their recorded results:
>>> test_value("CS(=O)(=O)c1ccc(-c2cccc(F)c2)c(C(=O)N2Cc3cn(-c4ccccc4F)nc3C2)c1")
10
>>> test_value("CCS(=O)(=O)c1ccc(O[C@@H](C)C(F)(F)F)c(C(=O)N2Cc3cn(-c4ccccc4F)nc3C2)c1")
29
>>> test_value("CC(C)S(=O)(=O)c1ccc(O[C@@H](C)C(F)(F)F)c(C(=O)N2Cc3cn(-c4ccccc4)nc3C2)c1")
406

Okay, next one:
Here Cc1cc(-n2cc3c(n2)CN(C(=O)c2cc(S(C)(=O)=O)ccc2-c2cccc(F)c2)C3)ccn1 was tested on Sodium- and chloride-dependent glycine transporter 1 (Homo sapiens, UniProt P48067), and its IC50 came to 4
